From: BindingDB's records for doi:10.1124/jpet.103.049619

assayed target: Histamine H1 receptor (Homo sapiens)
Sequence (P35367 whole entry): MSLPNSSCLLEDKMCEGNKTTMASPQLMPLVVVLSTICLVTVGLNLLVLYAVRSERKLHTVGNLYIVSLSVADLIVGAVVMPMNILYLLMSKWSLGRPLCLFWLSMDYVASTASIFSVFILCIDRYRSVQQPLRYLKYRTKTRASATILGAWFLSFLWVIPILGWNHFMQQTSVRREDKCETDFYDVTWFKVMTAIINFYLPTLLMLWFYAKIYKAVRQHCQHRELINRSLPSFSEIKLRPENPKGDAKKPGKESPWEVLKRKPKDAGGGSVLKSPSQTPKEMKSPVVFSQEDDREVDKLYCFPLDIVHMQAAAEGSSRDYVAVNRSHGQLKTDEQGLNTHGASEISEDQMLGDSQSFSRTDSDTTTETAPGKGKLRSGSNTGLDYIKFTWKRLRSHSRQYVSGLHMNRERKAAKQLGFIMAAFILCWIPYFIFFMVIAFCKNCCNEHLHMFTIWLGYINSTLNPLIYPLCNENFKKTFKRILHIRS
measured attribute: pKi
Answers are plain numbers, as −log10 of the molar value.

Take a look at these entries with their results.
INSERT INTO measurements (molecule, assay_value) VALUES
  ('N=C(NCCCc1c[nH]cn1)NCCC(c1cccc(Cl)c1)c1ccccn1 (centres undefined) [BU-E 47]', 6.59),
  ('NCCc1c[nH]c(-c2cccc(Br)c2)n1', 5.65),
  ('CNCCc1cnc(CCC(c2ccccc2)c2ccccc2)[nH]1', 6.43);

// next entry
In: Endpoint output: pKi of NC(=NCCC(c1ccc(F)cc1)c1ccccn1)NCCCc1cnc[nH]1 (centres undefined) [CAS_65895] . Value?
Out: 6.45

###

Below are pKi values measured for Histamine H1 receptor (Cavia porcellus, UniProt P31389).
One number for each entry, as −log10 of the molar value.

# per-item lookup of pKi; items listed below
1. CN(C)CCc1c[nH]c(CCC(c2ccccc2)c2ccccc2)n1
2. NCCc1nccs1 [2-(2-aminoethyl)thiazole]
3. NCCc1c[nH]c(-c2cccc(Cl)c2)n1 [2-(3-Chlorophenyl)histamine]

Out:
1: 6.51; 2: 5.07; 3: 6.22
